Collected I-sub, % of control (O2 consumption rate) values appear next to each entry.
test system: isolated rat liver mitochondria; assay: Oxygen consumption, Clark-type oxygen electrode; format: biochemical; conditions: 4 µM; glutamate/malate driven state 4 respiration; isolated rat liver mitochondria
measured_property: I-sub, % of control (O2 consumption rate)

>>> df
                                   compound                      system_name             result_value
0    Cc1cc(O)c2c(c1)C(=O)c1cc(O)cc(O)c1C2=O  isolated rat liver mitochondria  232 (25.1) % of control
1  CCN1C(=CC=Cc2ccc3ccccc3[n+]2CC)C=Cc2ccccc21.[Cl-] [Pinacyanol chloride]  isolated rat liver mitochondria  108 (12.1) % of control
2  O=C(O)c1cc(O)c2c(c1)C(=O)c1cccc(O)c1C2=O  isolated rat liver mitochondria  105 (13.7) % of control
3  Cl.N=C1C=CC(=C(c2ccc(N)cc2)c2ccc(N)cc2)C=C1 [C.I. Basic red 9 monohydrochloride]  isolated rat liver mitochondria   92 (12.1) % of control
4  N#CC(c1ccc(Cl)cc1)c1c(Cl)cc(-n2ncc(=O)[nH]c2=O)cc1Cl (centres unmarked) [Diclazuril, reference compound]  isolated rat liver mitochondria  115 (22.8) % of control
